ASSAY NAME: Half-life estimated by daily clearance rates (first-order model, k = Cltotal/Vd)
Assay type: in vivo, human
STATED CONDITIONS: female, human, serum and urine, other: occupational exposure, Female workers, number 71; menstrual clearance added to renal clearance; read-out: Half-life estimated through daily elimination, Median (converted)
REPORTED METRIC: half-life

**Q:** Could you please provide reported half-life for O=S(=O)(O)C(F)(F)C(F)(F)C(F)(F)C(F)(F)C(F)(F)C(F)(F)F [PFHxS, perfluorohexane sulfonate] ? Thanks!
**A:** 2780 days

###

ASSAY NAME: PFAA concentration in serum of occupational workers (HPLC-ESI/MS/MS)
Type: in vivo, human
STATED CONDITIONS: human, serum, other: occupational exposure, 46 workers sampled at least three times, 2011; read-out: Serum concentration, GM
REPORTED METRIC: concentration at 2011 calendar year (ng/mL)
Please respond with the number in ng/mL and leave the unit unwritten.

**Q:** In one line, give reported concentration at 2011 calendar year of the entry O=C(O)C(F)(F)C(F)(F)C(F)(F)C(F)(F)C(F)(F)C(F)(F)C(F)(F)F .
**A:** 692
